- Test system: Chenopodium album (CHEAL)
- METHOD_SUMMARY: Post-emergence efficacy, Method A
- Type: in vivo
- MEASUREMENT_PARAMETERS: Chenopodium album, post-emergence, 312 h; Application rate 500 g/Ha; evaluated after 13 days; 100=total damage to plant, 0=no damage to plant; read-out: Control of weed species after post-emergence application, CHEAL
Catalogue of pest or weed control at 500 g/ha values

# SMILES_STR, pest or weed control at 500 g/ha / %
measured = [
    ("CNC(=O)c1ccnc(-c2cc[n+](CCC(=O)[O-])nc2)n1", 90),
    ("O=S(=O)([O-])CC[n+]1ccc(-c2nccc(C(F)(F)F)n2)cn1", 80),
    ("O=C([O-])CC[n+]1ccc(-c2ncc(Cl)cn2)cn1", 90),
    ("O=S(=O)([O-])CC[n+]1ccc(-c2ncc(Cl)cn2)cn1", 30),
    ("O=S(=O)([O-])CC[n+]1ccc(-c2ccnc(C(F)(F)F)n2)cn1", 80),
    ("COc1cc(OC)nc(-c2cc[n+](CCC(=O)[O-])nc2)n1", 20),
    ("Cc1nccc(-c2cc[n+](CCC(=O)O)nc2)n1", 80),
    ("COC(=O)CC[n+]1ccc(-c2cccnn2)cn1", 100),
    ("CN(C)c1cnc(-c2cc[n+](CCS(=O)(=O)[O-])nc2)nc1", 0),
    ("CCOP(=O)(O)CC[n+]1ccc(-c2ncccn2)cn1", 90),
    ("CCOC(=O)CC[n+]1ccc(-c2ncccn2)cn1", 80),
    ("O=C(O)CC[n+]1ccc(-c2cnc(C(F)(F)F)cn2)cn1", 80),
    ("Cc1cnc(-c2cc[n+](CCC(=O)O)nc2)c(Cl)c1", 20),
    ("CC(C)(C[n+]1ccc(-c2ncccn2)cn1)S(=O)(=O)[O-]", 60),
    ("Cc1cnc(-c2cc[n+](CCC(=O)[O-])nc2)nc1C", 20),
    ("COc1nccc(-c2cc[n+](CCS(=O)(=O)[O-])nc2)n1", 100),
    ("O=C(O)CC[n+]1ccc(-c2cc(C(F)(F)F)ncn2)cn1", 100),
    ("O=S(=O)([O-])CC[n+]1ccc(-c2nccc(C3CC3)n2)cn1", 20),
    ("O=C(O)CC[n+]1ccc(-c2ccccn2)cn1", 40),
]

----------
- Tested on: Lolium perenne (LOLPE)
- METHOD_SUMMARY: Post-emergence efficacy, Method A
- Assay type: in vivo
- MEASUREMENT_PARAMETERS: Lolium perenne, post-emergence, 312 h, Application rate 500 g/Ha; evaluated after 13 days; 100=total damage to plant, 0=no damage to plant; read-out: Control of weed species after post-emergence application, LOLPE
Catalogue of pest or weed control at 500 g/ha values

# MOLECULE, SCALE_UNIT, pest or weed control at 500 g/ha
measured = [
    ("COc1cncc(-c2cc[n+](CCCS(=O)(=O)[O-])nc2)n1", "%", 20),
    ("Cc1cccnc1-c1cc[n+](CCS(=O)(=O)[O-])nc1", "%", 50),
    ("O=C(O)CC[n+]1ccc(-c2cncc(C(F)(F)F)n2)cn1", "%", 20),
    ("Cc1cccc(-c2cc[n+](CCS(=O)(=O)[O-])nc2)n1", "%", 50),
    ("O=C([O-])CC[n+]1ccc(-c2ncccc2F)cn1", "%", 40),
    ("Nc1cnc(-c2cc[n+](CCC(=O)[O-])nc2)nc1", "%", 20),
    ("Cc1cnc(-c2cc[n+](CCS(=O)(=O)[O-])nc2)cn1", "%", 70),
    ("COc1cnc(-c2cc[n+](CCC(=O)[O-])nc2)nc1", "%", 40),
    ("O=S(=O)([O-])CC[n+]1ccc(-c2ccncn2)cn1", "%", 100),
    ("CNC(=O)c1cnc(-c2cc[n+](CCC(=O)[O-])nc2)nc1", "%", 80),
    ("CN(C)c1ccnc(-c2cc[n+](CCS(=O)(=O)[O-])nc2)n1", "%", 10),
    ("CC(CC(=O)O)[n+]1ccc(-c2ncccn2)cn1 (stereo not shown) [Compound A40, 2,2,2-trifluoroacetate]", "%", 90),
    ("COC(=O)CC[n+]1ccc(-c2cccnn2)cn1", "%", 90),
    ("O=S(=O)([O-])CC[n+]1ccc(-c2ncc(F)cc2F)cn1", "%", 20),
    ("Cc1cc(Cl)cnc1-c1cc[n+](CCS(=O)(=O)[O-])nc1", "%", 10),
    ("COC(=O)CC[n+]1ccc(-c2ncccn2)cn1 [Compound A54, 2,2,2-trifluoroacetate]", "%", 70),
    ("O=S(=O)([O-])CC[n+]1ccc(-c2ncc(Cl)cn2)cn1", "%", 10),
    ("Cc1cnc(-c2cc[n+](CCS(=O)(=O)[O-])nc2)c(C)c1", "%", 10),
    ("Cc1cnc(-c2cc[n+](CCC(=O)O)nc2)nc1", "%", 80),
]

Values from patent US20220125051A1
